Parameter: inhibition. Scope: all listed entries.
# assay: inhibitors of TNFa-induced NFkB p65 translocation, primary screen, imaging, HUVEC, MLSMR starter and 10KST1 sets (AID 438);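 note: compound added about 3h40 before a 20 min TNFalpha stimulation; signal is the nuclear over cytoplasmic p65 intensity ratio per well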
# conditionContext: HUVEC TNFa-induced p65 nuclear translocation; at 2 µM, stronger effect = higher value, 0% TNFa-plus-vehicle, 100% no-TNFa wells
parameterMeasured: inhibition (%)

COc1ccc(C(=O)N/C(N)=N/c2nc3ccccc3o2)cc1 = -12.2
CNC(=O)CC(C(=O)O)c1ccc(OC(C)C)cc1 (configuration not stated) = -0.5
CCOP(=O)(c1ccccc1)c1nc(-c2ccccc2C)oc1N1CCCCC1 (configuration not stated) = -2.4
COc1ccc(/C(O)=C2\C(=O)C(=O)N(c3cc(C)on3)C2c2cccc(OC)c2OC)cc1C (configuration not stated) = -1.2
C=C(C)CN1CCN(c2c(CCC#N)c(C)c(C#N)c3nc4ccccc4n23)CC1 = -17.5
COc1ccc2c(c1)nc(N)n2Cc1ccccc1 = -4.4
CCCCNc1nc2c(c(=O)n(C)c(=O)n2C)n1Cc1cccc(OC)c1 = -7.7
COc1cc(C2C3C(=O)N(c4ccccc4)C(=O)C3ON2c2ccccc2)ccc1O (configuration not stated) = -4.2
CC(=O)OCC(=O)[C@@]1(OC(C)=O)[C@@H](C)C[C@H]2[C@@H]3C[C@H](F)C4=CC(=O)C=C[C@]4(C)[C@@]3(F)[C@@H](O)C[C@@]21C = -5.5
CCCCNC(=O)C(C#N)c1nc2ccccc2nc1N1CCN(c2ccccc2F)CC1 (configuration not stated) = 7.2
COCCOCCOCCC(=O)NC1CC2CCC1(C)C2(C)C (configuration not stated) = -10.5
Cn1ncc(N=Cc2ccccc2O)c1C(=O)Nc1ccccc1 = -3.8

====

# assay: inhibitors of Chlamydomonas gravitaxis, primary screen, whole organism, Chlamydomonas reinhardtii, WT vs cilia-less mutant, absorbance, 96-well (AID 463189);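 note: 0% = wild type cc124 cells in DMSO and 100% = ciliumless bld1 mutant cells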
# conditionContext: OD600 absorbance, 2 days, at 10 µM, stronger effect = higher value
parameterMeasured: inhibition (%)

N#C/C(=N\O)c1nc(-c2ccccc2)cs1 = 2.16
CN(C)CCCOC(=O)C1c2ccccc2Oc2ccccc21 = 8
O=C(CCC1CCCC1)N1CCC(N2CCN(c3ccccc3)CC2)CC1 = 62.1
CC1CN(C2CCN(C(=O)COc3ccccc3)CC2)CC(C)O1 (stereo not given) = -3.28
COCCOC(=O)c1c(C)nc(SCC(=O)Nc2ccc(OC)cc2)c(C#N)c1-c1ccco1 = -0.332
C[C@H](CCC(=O)O)[C@H]1CC[C@H]2[C@@H]3C(=O)C[C@@H]4CC(=O)CC[C@]4(C)[C@H]3CC(=O)[C@]12C = 9.63
COc1cc([C@@H]2c3cc4c(cc3[C@H](O)[C@H]3COC(=O)[C@H]23)OCO4)cc(OC)c1OC = 0.865
Cc1nc2c(=O)n(C)c(=O)[nH]c2n1Cc1ccccc1 = -5.62
Cc1cc(/C=N\O)c(C)n1-c1ccncc1 = 19.4
CCCCOc1ccc(CSC(CC(=O)O)C(=O)O)cc1 (stereo not given) = 1.39
COc1ccccc1C1(CC(=O)N2CCOCC2)CCOC(C(C)C)C1 (stereo not given) = 12.8
COc1ccccc1N(O)C1CC(=O)N(c2ccc(Br)cc2)C1=O (stereo not given) = 37.8
COc1cc(=O)n2c(-c3ccccc3)csc2n1 = 5.32
CCOC(=O)c1[nH]c2cc3c(cc2c1NC(=O)CN1CCCCC1C)OCO3 (stereo not given) = -2.82
OC[C@H]1O[C@@H](n2cnc3c(Nc4ccccc4)ncnc32)[C@H](O)[C@@H]1O = -14.4
Clc1ccc2nc(CSc3nc4ccccc4o3)cn2c1 = -14.7
Cc1ccc(/C=N/n2nnnc2N)o1 = 5.51
CCCOC(=O)CSC1=C(C#N)C(c2ccccc2OC)C(C#N)C(=O)N1 (stereo not given) = -12.6
N#CC(C(=O)NC1CC1)c1nc2ccccc2nc1N1CCN(C/C=C/c2ccccc2)CC1 (stereo not given) = 26.9
COc1nc(NS(=O)(=O)c2ccc(C)cc2)nc(C)c1Cl = -6.39
